tested_on: WhiA (Streptomyces venezuelae)
protocol_summary: DNase I footprinting
setup_conditions: DNase I footprinting per Sure Track kit (Amersham); buffer, salt, pH and temperature not given in the material

>  <monomer_sequence>
CCGGAATTCCCACTCAAAAGGCTGGACATTCTCCAGATCAAACGGGCATACGCTCGATGACACGCCGCTTCGGCCCCTAGGATTCCCTCTAACACCTCACCGGTCTCATTCGACAGGAAACCCATGAGCGACACATCCTCCCCCTTCGGCTTCGAGCTCGTGCGGCGCGGTTAGGATCCGCG (double strand) [filP promoter probe]

>  <binding>
binds

$$$$
>  <monomer_sequence>
GCGCCGCAGCCCGGAGAAACCGAGGGCTTCTCCCCGCAGCGTCATTTGGAGGTTTTGGGACGACACGCCCCTAAACTCGCCCTGGACGTGGTGCTGGCCGACGAGGCCGCCGTGCCCGACCGCGAGTCCCTCGCCGACGCCGCCAAGCGGCTCGGTGCCGC (double strand) [whiAp2 promoter probe]

>  <binding>
binds

$$$$
>  <monomer_sequence>
GAACTGGTGGAGAAGTCGGCGAAGCGCTTGCGCGGGGCCGTCCTGATCGGTGCCGACCGCGCCCTGATCCGCGAAGCCCTGGCGCGACACGCCCCGGAGGTACCGGTGGTGGACCTCGACCGGACCGACACTGGGGCGATGTCCGAGGCGGTC (double strand) [ftsW promoter probe]

>  <binding>
binds

$$$$
>  <monomer_sequence>
GCTGCTCCACTCCACCAACGTAGGTCGGGAAGGGGCGGGAACCGGGTCCGGGACACGCCCTTTGGGTGACCTTGCCCCCGAGAACGACCGAAGGTCGGCGTCG (double strand) [sven4724-sven4725 intergenic probe]

>  <binding>
binds

$$$$
>  <monomer_sequence>
GACGTGCCGCGCATCCGGGCGGCCACGGACCTGGGCAACGTCCCGATGGCCGCGGCGTTCGCCCGGGCGGGTTACGACGCCTTCGAGCACGCGATCAACTACGTGTGGGACGCGCCGGGCGTGGCGGGTCCCTGACTGCCAGGATGGGGGCGTAGGTCCGTCGACGAGGGGATTTGGCGTGCTCTTCGAGGTGTGGGC (double strand) [treZ promoter probe]

>  <binding>
binds

$$$$
>  <monomer_sequence>
GACATACCCACTCGGACTACTCCAGTCGACACGCCGAGGGTTTGCCCCTTTTGTAGGGATATCGACCCGTTCGACGACAGCTGGAGGCACCGTGCGGCCGGGAGGCTACGACTACGACAC (double strand) [cslA promoter probe]

>  <binding>
binds

$$$$
>  <monomer_sequence>
GGCGGTACGGGAGCGGCCGACGCAGACTGGGAGGAGCGCCCTCTTTCCCGGAGTGCTGGAGGAACCACGGTATGACCGACCTCGCCATCGAGACCGAGGGCCTGGTCAAGGTCTTCGGCAGCAACCGCGCCGTCGACGGGATCGACCTCCGCGTCCCCGCCGGAATCGTCTACGGAGTCCTTGGCCCCAACGGCGC (double strand) [sven3535 promoter probe]

>  <binding>
no binding

$$$$
>  <monomer_sequence>
AGCATCCGGTGCACCCTCCCAGTGTCGCACCCGAAGGTGTCGAATCCCGGGAGTGGGCCCGCCGCGACACGCGGAGGGCCCGGAATCGCCTTTAACCCAAGATCTAGTGGTTGGATGGCATCGG (double strand) [nrdR promoter probe]

>  <binding>
binds

$$$$
>  <monomer_sequence>
GTCTCGCGCATGTGAGGGGCGGTGCCGCGCGGGGCACCGGGCCCGGCGGGCCCGGGCCGCACCGACGCGCCGGAATGATCGCTAAGAGGAAATTGTCCGATTAGCGCGTATCGTCGGCCCATGCCCACGCCATACGGATCCCGCGGCGGCATGGCGTTCAGCGCGGACGAGCTGCGTGTGCTCCGCCGTGCCCTCGCCATC (double strand) [sven3229 promoter probe]

>  <binding>
no binding

$$$$
